tested on: Pichia kudriavzevii; experiment: Antifungal activity against Candida krusei ATCC 6258 after 48 hrs by spectrophotometry; format: functional; details: ATCC 6258, 48 h
attribute-measured: MIC (µg/mL)

1. CCCCCCCCCCCCCCCCOP(=O)([O-])OCC[N+](C)(C)C [MILTEFOSINE]
2. CCCCCCCCCCCCCCOP(=O)([O-])OCC[N+](C)(C)Cc1ccccc1
3. CCCCCCCCCCCCCCCCOP(=O)([O-])OCC[N+](C)(C)Cc1ccccc1
Parameters: sort_field (MIC), sort_dir (desc). Form entry: ranked labels (order as requested).
2, 3, 1

P. CCCCCCCCCCCCCCCCOP(=O)([O-])OCC[N+](C)(C)C/C=C/c1ccccc1
Q. CCCCCCCCCCCCCCCCOP(=O)([O-])OCC[N+](C)(C)Cc1ccc(OC)cc1
Select one. Lower MIC: P or Q Choose, then provide that item's label.
Q
